Recorded IC50 for the following binders
- Test Target: DRB1*0405 (human, UniProt P01903 26-216, limits assumed)
- Method Notes: competition vs 125I probe peptide, purified MHC II
Readout: IC50 (nM)

- DTFRKLFRVYSNDLR: 487
- DTPRKLFRVYSNFLR: 6.9
